Counter-ions that a name gives are not always drawn.
Reported melting point values are given for each entry in this list.

molecule | melting point [°C]
CN1CCC(OC(c2nc3ccccc3[nH]2)c2cc(O)ccc2F)CC1 (stereo not shown) (as salt: oxalate) | 135
CN1CCC(OC(c2cccc(N3CC4CC(N)CC4C3)c2)c2nc3ccccc3s2)CC1 (stereo not shown) (as salt: oxalate) | 126
COc1ccc(-c2cccc(C(NC3CCN(C)CC3)c3nc4ccccc4[nH]3)c2)cc1 (stereo not shown) | 110
CN1CCC(OC(c2cccc(OCCN3CCCCC3)c2)c2nc3ccccc3[nH]2)CC1 (stereo not shown) (as salt: oxalate) | 160
Cc1ccc(C(NC2CCN(C)CC2)c2nc3ccccc3[nH]2)cc1 (stereo not shown) | 183
CN1CCC(OC(c2cccc(C=CCCCO)c2)c2nc3ccccc3[nH]2)CC1 (stereo not shown) (as salt: oxalate) | 125
CN1CCC(OC(c2cccc(OCCCl)c2)c2nc3ccccc3s2)CC1 (stereo not shown) (as salt: oxalate) | 70

###

# test_target: human H4 receptor (Homo sapiens, UniProt Q9H3N8)
# Construct: expressed in transfected cells
# Sequence (Q9H3N8 whole entry): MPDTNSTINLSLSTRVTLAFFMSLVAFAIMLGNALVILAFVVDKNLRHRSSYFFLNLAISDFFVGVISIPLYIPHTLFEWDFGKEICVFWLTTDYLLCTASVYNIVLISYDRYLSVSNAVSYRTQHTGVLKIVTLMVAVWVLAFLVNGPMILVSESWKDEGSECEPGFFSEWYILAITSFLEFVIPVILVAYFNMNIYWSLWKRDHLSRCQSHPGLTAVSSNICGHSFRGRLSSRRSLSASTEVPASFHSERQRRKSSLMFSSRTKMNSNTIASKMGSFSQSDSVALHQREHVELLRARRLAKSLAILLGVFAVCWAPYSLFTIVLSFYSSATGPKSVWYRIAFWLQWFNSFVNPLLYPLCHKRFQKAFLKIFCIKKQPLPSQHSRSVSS
# assay_explanation: [3H]Histamine binding on membranes of CHO cells stably expressing human H4 receptor
# Description: CHO cells stably expressing human H4 receptor were grown until sub-confluence and centrifuged at 300 g 15 minutes at 4° C. Pellets were resuspended in buffer I Tris-HCl 50 mM, MgCl2 10 mM, NaCl 140 mM, pH=7.4 supplemented by a 1/50 dilution of a mix of protease inhibitors. […] Protein content is measured by the Bradford method. […] The filter-bound radioactivity was measured in a liquid scintillation counter Microbeta TRILUX® with 50 μl of scintillation fluid. […]

molecule | Ki or IC50 activity class
CN1CCC(OC(c2cccc(C#CCCNC(=N)N)c2)c2nc3ccccc3[nH]2)CC1 (centres unmarked) | < 30 nM
CN1CCC(OC(c2cccc(-c3ccccc3Cl)c2)c2nc3ccccc3[nH]2)CC1 (centres unmarked) | < 300 nM
CN1CCC(OC(c2cccc(SCCCCN)c2)c2nc3cc(F)ccc3[nH]2)CC1 (centres unmarked) | < 30 nM
CC(=O)c1cccc(-c2cccc(C(OC3CCN(C)CC3)c3nc4ccccc4[nH]3)c2)c1 (centres unmarked) | < 300 nM
CN1CCC(NC(c2cccc(OCc3cc(F)ccc3F)c2)c2nc3ccccc3[nH]2)CC1 (centres unmarked) | < 30 nM
CCc1cccc(C(NC2CCN(C)CC2)c2nc3ccccc3[nH]2)c1 (centres unmarked) | < 30 nM
CN1CCC(OC(c2cccc(SCCCCO)c2)c2nc3cc(F)c(F)cc3[nH]2)CC1 (centres unmarked) | < 300 nM
CN1CCC(OC(c2nc3ccccc3[nH]2)c2ccccc2O)CC1 (centres unmarked) [Example 561] | < 30 nM
CCOC(=O)n1c(C(OC2CCN(C)CC2)c2cc(OC(F)(F)F)ccc2F)nc2ccccc21 (centres unmarked) | < 1000 nM
Cc1ccc(C(OC2CCN(C)CC2)c2nc3ccccc3[nH]2)cc1 (centres unmarked) [Example 177] | < 300 nM
CN1CCC(OC(c2nc3ccccc3[nH]2)c2cc(F)c(F)cc2O)CC1 (centres unmarked) | < 300 nM
CN1CCC(OC(c2cccc(C(F)(F)F)c2)c2nc3ccccc3s2)CC1 (centres unmarked) | < 30 nM
CN1CCC(OC(c2nc3ccccc3[nH]2)c2cc(Cl)cc(Cl)c2O)CC1 (centres unmarked) | < 1000 nM
CSc1cccc(C(OC2CCN(C)CC2)c2nc3ccccc3s2)c1 (centres unmarked) | < 30 nM
CN1CCC(OC(c2nc3ccccc3[nH]2)c2cc3c(cc2O)CCC3)CC1 (centres unmarked) | < 300 nM
CN1CCC(OC(c2cccc(OCCCCN)c2)c2nc3ccccc3s2)CC1 (centres unmarked) | < 30 nM
CN1CCC(OC(c2nc3cc(F)ccc3[nH]2)c2cc(C#CCCCN)ccc2F)CC1 (centres unmarked) | < 30 nM
CN1CCC(OC(c2cccc(N3CCC(CO)C3)c2)c2nc3ccccc3s2)CC1 (centres unmarked) | < 300 nM
CN1CCC(OC(c2cccc(SCC(O)CO)c2)c2nc3ccccc3[nH]2)CC1 (centres unmarked) | < 1000 nM
CN1CCC(OC(c2cccc(OCCCCn3nccn3)c2)c2nc3ccccc3s2)CC1 (centres unmarked) | < 1000 nM
